# Test system: 653999-131-R-J2-PDC complex spheroids, growth % test/control
# experiment: Anticancer human tumor 653999-131-R-J2-PDC patient-derived lung adenocarcinoma cell line growth inhibition [AhR]
# assay.conditions: curve of first compound; second compound 10 µM
property.measured: IC50 (nM)

Look over these answered cases.
[[record]]
compound = "CCc1c2c(nc3ccc(O)cc13)-c1cc3c(c(=O)n1C2)COC(=O)[C@]3(O)CC + CC(CO)NC(=O)c1cc(-c2ccc(Cl)cc2)nn(-c2cnn(C)c2)c1=O"
property_measured = "IC50"
endpoint_result = 4.97

[[record]]
compound = "O=C(c1cc(Cc2n[nH]c(=O)c3ccccc23)ccc1F)N1CCN(C(=O)C2CC2)CC1 + Cc1cncc(-c2nc(NCCc3c[nH]c4ccccc34)c3ncn(C(C)C)c3n2)c1"
property_measured = "IC50"
endpoint_result = 3010


A = CC(C)CC(NC(=O)C(Cc1ccccc1)NC(=O)c1cnccn1)B(O)O (configuration not stated) + Cc1ccccc1N=Nc1ccc(NC(=O)c2ccnn2C)c(C)c1
B = Nc1ccccc1NC(=O)c1ccc(CNC(=O)OCc2cccnc2)cc1 + Cc1cncc(-c2nc(NCCc3c[nH]c4ccccc34)c3ncn(C(C)C)c3n2)c1
C = O=C(C=Cc1cccc(S(=O)(=O)Nc2ccccc2)c1)NO + Cc1ccccc1N=Nc1ccc(NC(=O)c2ccnn2C)c(C)c1
D = CC[C@@]1(O)C(=O)OCc2c1cc1n(c2=O)Cc2cc3c(CN(C)C)c(O)ccc3nc2-1 + Cc1cncc(-c2nc(NCCc3c[nH]c4ccccc34)c3ncn(C(C)C)c3n2)c1
Task: Order field: IC50 | Direction: descending (largest first) Please respond with the labels ordered as the question requires.
Output: C, B, A, D

###

Catalogue of compounds with associated viability, T/C
# Test system: 653999-131-R-J2-PDC complex spheroids, growth % test/control
# experiment: Anticancer human tumor 653999-131-R-J2-PDC cell line growth inhibition [AhR];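 note: spheroids exposed to agents for seven days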;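 for viability, T/C: 100% = DMSO vehicle control viability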
# assay.conditions: second compound 1 µM; first compound 0.03 µM; stronger effect = lower value
Report as a plain number; the unit % is understood.

Look over these answered cases.
[[record]]
compound = "CCN(c1cc(-c2ccc(CN3CCOCC3)cc2)cc(C(=O)NCc2c(C)cc(C)[nH]c2=O)c1C)C1CCOCC1 + Cc1ccccc1N=Nc1ccc(NC(=O)c2ccnn2C)c(C)c1"
assay_system = "653999-131-R-J2-PDC complex spheroids, growth % test/control"
unit_info = "%"
endpoint_result = 95.2

[[record]]
compound = "CC(C)CC(NC(=O)C(Cc1ccccc1)NC(=O)c1cnccn1)B(O)O (stereo not drawn) + CC(CO)NC(=O)c1cc(-c2ccc(Cl)cc2)nn(-c2cnn(C)c2)c1=O"
assay_system = "653999-131-R-J2-PDC complex spheroids, growth % test/control"
unit_info = "%"
endpoint_result = 19.5


// below: viability, T/C requested for another compound
Noted for CCc1c2c(nc3ccc(O)cc13)-c1cc3c(c(=O)n1C2)COC(=O)[C@]3(O)CC + CC(CO)NC(=O)c1cc(-c2ccc(Cl)cc2)nn(-c2cnn(C)c2)c1=O : its viability, T/C reads 33.7

###

# Tested on: 653999-131-R-J2-PDC complex spheroids, growth % test/control
# experiment: Anticancer human tumor 653999-131-R-J2-PDC cell line growth inhibition [AhR];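 note: spheroids exposed to agents for seven days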
# assay.conditions: curve of first compound; second compound 10 µM
property.measured: IC50 (nM)

[[record]]
compound = "COc1cc(C2c3cc4c(cc3C(OC3OC5COC(C)OC5C(O)C3O)C3COC(=O)C23)OCO4)cc(OC)c1O (stereo unspecified) + Cc1cncc(-c2nc(NCCc3c[nH]c4ccccc34)c3ncn(C(C)C)c3n2)c1"
assay_system = "653999-131-R-J2-PDC complex spheroids, growth % test/control"
property_measured = "IC50"
endpoint_result = 44


a = CC(C)CC(NC(=O)C(Cc1ccccc1)NC(=O)c1cnccn1)B(O)O (stereo unspecified) + Cc1cncc(-c2nc(NCCc3c[nH]c4ccccc34)c3ncn(C(C)C)c3n2)c1
b = COc1cc(C2c3cc4c(cc3C(OC3OC5COC(C)OC5C(O)C3O)C3COC(=O)C23)OCO4)cc(OC)c1O (stereo unspecified) + Cc1ccccc1N=Nc1ccc(NC(=O)c2ccnn2C)c(C)c1
Task: Of a and b , which shows the smaller IC50 value? Give the label under which the chosen entry appears.
Output: a
(a: 4.28 nM, b: 962 nM)

###

Catalogue of compounds with associated viability, T/C
# Test system: 653999-131-R-J2-PDC complex spheroids, growth % test/control
# experiment: Anticancer human tumor 653999-131-R-J2-PDC cell line growth inhibition [AhR];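 note: spheroids exposed to agents for seven days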;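 for viability, T/C: 100% = DMSO vehicle control viability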
# assay.conditions: second compound 3.16 µM; first compound 1 µM; stronger effect = lower value
Report as a plain number; the unit % is understood.

[[record]]
compound = "CC(C)c1c(-c2ccccc2)nc2c(C#N)c[nH]n2c1=O + Cc1ccccc1N=Nc1ccc(NC(=O)c2ccnn2C)c(C)c1"
endpoint_result = 92.8

[[record]]
compound = "COc1cc(Nc2ncc3c(n2)-c2ccc(Cl)cc2C(c2c(F)cccc2OC)=NC3)ccc1C(=O)O + Cc1cncc(-c2nc(NCCc3c[nH]c4ccccc34)c3ncn(C(C)C)c3n2)c1"
endpoint_result = 73.4

[[record]]
compound = "O=C(c1cc(Cc2n[nH]c(=O)c3ccccc23)ccc1F)N1CCN(C(=O)C2CC2)CC1 + Cc1ccccc1N=Nc1ccc(NC(=O)c2ccnn2C)c(C)c1"
endpoint_result = 87.1


// below: viability, T/C requested for another compound
Noted for Nc1ncn(C2CC(O)C(CO)O2)c(=O)n1 (centres undefined) + Cc1cncc(-c2nc(NCCc3c[nH]c4ccccc34)c3ncn(C(C)C)c3n2)c1 : its viability, T/C reads 90.2

###

# System: 653999-131-R-J2-PDC complex spheroids, growth % test/control
# experiment: Anticancer human tumor 653999-131-R-J2-PDC cell line growth inhibition [AhR];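 note: spheroids exposed to agents for seven days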;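 for viability, T/C: 100% = DMSO vehicle control viability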
# assay.conditions: second compound 0.316 µM; first compound 0.00949 µM; stronger effect = lower value
Catalogue of compounds with associated viability, T/C
Report as a plain number; the unit % is understood.

[[record]]
compound = "CCN(c1cc(-c2ccc(CN3CCOCC3)cc2)cc(C(=O)NCc2c(C)cc(C)[nH]c2=O)c1C)C1CCOCC1 + Cc1ccccc1N=Nc1ccc(NC(=O)c2ccnn2C)c(C)c1"
property_measured = "viability, T/C"
unit_info = "%"
endpoint_result = 93.2


Noted for CCc1c2c(nc3ccc(O)cc13)-c1cc3c(c(=O)n1C2)COC(=O)[C@]3(O)CC + Cc1ccccc1N=Nc1ccc(NC(=O)c2ccnn2C)c(C)c1 : its viability, T/C reads 49.7

Noted for CCc1c2c(nc3ccc(O)cc13)-c1cc3c(c(=O)n1C2)COC(=O)[C@]3(O)CC + Cc1cncc(-c2nc(NCCc3c[nH]c4ccccc34)c3ncn(C(C)C)c3n2)c1 : its viability, T/C reads 39.1

###

# System: 653999-131-R-J2-PDC complex spheroids, growth % test/control
# experiment: Anticancer human tumor 653999-131-R-J2-PDC cell line growth inhibition [AhR];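 note: spheroids exposed to agents for seven days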;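 for viability, T/C: 100% = DMSO vehicle control viability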
# assay.conditions: second compound 0.1 µM; first compound 0.03 µM; stronger effect = lower value
property.measured: viability, T/C (%)
Report as a plain number; the unit % is understood.

Look over these answered cases.
[[record]]
compound = "CC(C)CC(NC(=O)C(Cc1ccccc1)NC(=O)c1cnccn1)B(O)O (stereo unspecified) + Cc1cncc(-c2nc(NCCc3c[nH]c4ccccc34)c3ncn(C(C)C)c3n2)c1"
property_measured = "viability, T/C"
unit_info = "%"
endpoint_result = 29.3

[[record]]
compound = "CC(C)CC(NC(=O)C(Cc1ccccc1)NC(=O)c1cnccn1)B(O)O (stereo unspecified) + CC(CO)NC(=O)c1cc(-c2ccc(Cl)cc2)nn(-c2cnn(C)c2)c1=O"
property_measured = "viability, T/C"
unit_info = "%"
endpoint_result = 20.3

[[record]]
compound = "CCc1c2c(nc3ccc(O)cc13)-c1cc3c(c(=O)n1C2)COC(=O)[C@]3(O)CC + CC(CO)NC(=O)c1cc(-c2ccc(Cl)cc2)nn(-c2cnn(C)c2)c1=O"
property_measured = "viability, T/C"
unit_info = "%"
endpoint_result = 32

[[record]]
compound = "CCN(c1cc(-c2ccc(CN3CCOCC3)cc2)cc(C(=O)NCc2c(C)cc(C)[nH]c2=O)c1C)C1CCOCC1 + Cc1ccccc1N=Nc1ccc(NC(=O)c2ccnn2C)c(C)c1"
property_measured = "viability, T/C"
unit_info = "%"
endpoint_result = 102

[[record]]
compound = "O=C(C=Cn1cnc(-c2cc(C(F)(F)F)cc(C(F)(F)F)c2)n1)NNc1cnccn1 + CC(CO)NC(=O)c1cc(-c2ccc(Cl)cc2)nn(-c2cnn(C)c2)c1=O"
property_measured = "viability, T/C"
unit_info = "%"
endpoint_result = 110


// below: viability, T/C requested for another compound
Noted for O=C(C=Cn1cnc(-c2cc(C(F)(F)F)cc(C(F)(F)F)c2)n1)NNc1cnccn1 + Cc1cncc(-c2nc(NCCc3c[nH]c4ccccc34)c3ncn(C(C)C)c3n2)c1 : its viability, T/C reads 65.8

Attribution: PubChem BioAssay AID1919000
